Tested on: BT-549 breast
Assay: NCI-60 one-dose screen, 48 h (100 = growth as untreated, 0 = no growth, -100 = all killed)
Details: 10 µM unless noted
Protocol: Growth inhibition of the BT-549 human tumor cell line is measured as a screen for anti-cancer activity. Cells are grown in 96 well plates and exposed to the test compound for 48 hours. Compounds are tested at a single concentration, which is 10^-5 M for most compounds. The reported endpoint is percent growth (GI% or GIPRCNT), where numbers from 0 - 100% represent growth inhibition, and numbers from -100% - 0 represent cell death. For example, a value of 40 represents 60% growth inhibition. […]
Compounds without any hit were thinned out: in the full panel of roughly 83,000, 20% have a hit.
Measured growth, listed per entry for reference.
reportedEndpoint: growth (%)

[
  {
    "compound": "COc1cccc(COc2ccc(/C=C3/C(=O)Nc4cc(Cl)ccc43)cc2)c1",
    "measuredOn": "BT-549 breast",
    "reportedEndpoint": "growth",
    "numericReadout": 106
  },
  {
    "compound": "CCOC(=O)c1c(Nc2ccccc2)nn2c(N)c(C#N)c(-c3ccc(OC)cc3)nc12",
    "measuredOn": "BT-549 breast",
    "reportedEndpoint": "growth",
    "numericReadout": 52.6
  },
  {
    "compound": "COc1ccc(-n2c(SCC(=O)Nc3ccc(-c4nc5ccccc5[nH]4)cc3)nc3ccccc3c2=O)cc1",
    "measuredOn": "BT-549 breast",
    "reportedEndpoint": "growth",
    "numericReadout": -65
  },
  {
    "compound": "O=C1Nc2ccc(Cl)cc2/C1=C/c1ccc(OCC(=O)c2ccc(Br)cc2)cc1",
    "measuredOn": "BT-549 breast",
    "reportedEndpoint": "growth",
    "numericReadout": 118
  },
  {
    "compound": "Cc1cccc2sc(/N=C(\\N)C(Br)Br)nc12",
    "measuredOn": "BT-549 breast",
    "reportedEndpoint": "growth",
    "numericReadout": 30.2
  },
  {
    "compound": "O=C1Nc2ccccc2Oc2ccc(S(=O)(=O)CC3CO3)cc21 (stereo not given)",
    "measuredOn": "BT-549 breast",
    "reportedEndpoint": "growth",
    "numericReadout": 25
  },
  {
    "compound": "Cc1cccc2sc(/N=C(\\N)C(Cl)(Cl)Cl)nc12",
    "measuredOn": "BT-549 breast",
    "reportedEndpoint": "growth",
    "numericReadout": 117
  },
  {
    "compound": "O=C(O)CCCCCN1C(=O)/C(=C/c2ccc(O)c(O)c2)SC1=S",
    "measuredOn": "BT-549 breast",
    "reportedEndpoint": "growth",
    "numericReadout": 101
  },
  {
    "compound": "NC(=O)c1cc(-c2ccc3ncnc(N4CCc5cc(F)c(Cl)cc54)c3c2)cnc1N",
    "measuredOn": "BT-549 breast",
    "reportedEndpoint": "growth",
    "numericReadout": -13.5
  },
  {
    "compound": "COc1ccc(-c2nn3c(-c4ccccc4F)nnc3s2)cc1",
    "measuredOn": "BT-549 breast",
    "reportedEndpoint": "growth",
    "numericReadout": 50.9
  },
  {
    "compound": "COc1cc(OC)c(S(=O)(=O)NNC(=O)c2ccncc2)cc1C(=O)/C=C/c1ccc(C)cc1",
    "measuredOn": "BT-549 breast",
    "reportedEndpoint": "growth",
    "numericReadout": 6.18
  },
  {
    "compound": "COc1cc(-c2ccc3ncnc(NC(C)c4ccccc4)c3c2)cnc1OC (stereo not given)",
    "measuredOn": "BT-549 breast",
    "reportedEndpoint": "growth",
    "numericReadout": 32.6
  },
  {
    "compound": "CS(=O)(=O)c1ccc(-c2nc3ccccn3c2-c2nc3ccc([N+](=O)[O-])cc3[nH]2)cc1",
    "measuredOn": "BT-549 breast",
    "reportedEndpoint": "growth",
    "numericReadout": 122
  },
  {
    "compound": "COc1cc(/C=C/C(=O)c2ccc(F)cc2)ccc1Oc1nc(NCCO)nc(N2CCOCC2)n1",
    "measuredOn": "BT-549 breast",
    "reportedEndpoint": "growth",
    "numericReadout": 86.3
  },
  {
    "compound": "Nc1ncc(-c2ccc3ncnc(N4CCc5cc(F)c(Cl)cc54)c3c2)cc1CO",
    "measuredOn": "BT-549 breast",
    "reportedEndpoint": "growth",
    "numericReadout": -31.1
  },
  {
    "compound": "Clc1ccc2c(NCCCn3ccnc3)c3oc4ccc(Cl)cc4c3nc2c1",
    "measuredOn": "BT-549 breast",
    "reportedEndpoint": "growth",
    "numericReadout": 88.1
  },
  {
    "compound": "O=C(N/N=C/c1ccc([N+](=O)[O-])o1)c1[nH]c2ccc(Br)cc2c1-c1ccccc1",
    "measuredOn": "BT-549 breast",
    "reportedEndpoint": "growth",
    "numericReadout": -32.1
  },
  {
    "compound": "Clc1ccc(Cc2nnc3sc(-c4cccnc4)nn23)cc1",
    "measuredOn": "BT-549 breast",
    "reportedEndpoint": "growth",
    "numericReadout": 95.5
  },
  {
    "compound": "Cn1ccnc1C(=O)/C=C/c1ccc(NC(=O)Nc2ccc(F)cc2)cc1",
    "measuredOn": "BT-549 breast",
    "reportedEndpoint": "growth",
    "numericReadout": 30.1
  },
  {
    "compound": "CCOC(=O)c1c(Nc2ccccc2)nn2c(N)c(C#N)c(-c3ccc(Cl)cc3)nc12",
    "measuredOn": "BT-549 breast",
    "reportedEndpoint": "growth",
    "numericReadout": 96.7
  },
  {
    "compound": "C=C1CC[C@H]2[C@@](C)(CCC3OC(c4ccc(OCc5cn(C6CC(OC(C)=O)C(OC(C)=O)C(COC(C)=O)O6)nn5)cc4)OC[C@]32C)[C@@H]1/C=C/C1=CCOC1=O (stereo not given in full)",
    "measuredOn": "BT-549 breast",
    "reportedEndpoint": "growth",
    "numericReadout": 61.2
  },
  {
    "compound": "Cc1c(Nc2nnc(SCC(=O)Nc3sc4c(c3C#N)CCCC4)s2)c(=O)n(-c2ccccc2)n1C",
    "measuredOn": "BT-549 breast",
    "reportedEndpoint": "growth",
    "numericReadout": 113
  },
  {
    "compound": "COc1ccc(C(=O)/C=C/c2ccc(OCc3ccc(C)cc3)c(OC)c2)cc1OC",
    "measuredOn": "BT-549 breast",
    "reportedEndpoint": "growth",
    "numericReadout": 73.2
  },
  {
    "compound": "Cn1cc(-c2cc(N)n3nc(-c4cn(C)c5ccc(Cl)cc45)cc3n2)c2cc(Cl)ccc21",
    "measuredOn": "BT-549 breast",
    "reportedEndpoint": "growth",
    "numericReadout": 117
  },
  {
    "compound": "CCOC(=O)c1sc(NCC(=O)Nc2cccc([N+](=O)[O-])c2)c(C(=O)OCC)c1C",
    "measuredOn": "BT-549 breast",
    "reportedEndpoint": "growth",
    "numericReadout": -19.3
  }
]
